System: clinical HCMV isolate
METHOD_NOTES: Dense Body (DB) production in HFF infected with a clinical HCMV isolate, co-cultured with non-infected HFF, electron microscopy
Type: cell-based, human cytomegalovirus (HCMV)
EXPERIMENTAL_CONTEXT: HFF infected with a clinical isolate of HCMV, co-culture with non-infected HFF
EXPERIMENTAL_READOUT: concentration that led to good results (DB production) (nmol/L)

In [3]: df
Out[3]:
                            chemical_smiles  target_or_test_system  numeric_result
0  COc1cccc(N2CCN(C3=Nc4c(F)cccc4[C@H](CC(=O)O)N3c3cc(C(F)(F)F)ccc3OC)CC2)c1  clinical HCMV isolate             300
1  N#CC1(C(=O)Nc2cc(F)cc(NS(=O)(=O)c3ccc(-c4noc(-c5cccc(N)n5)n4)cc3)c2)CC1  clinical HCMV isolate           30000
2  Cc1ccc(N2CCN(C(=O)c3nc(NC(=O)Nc4ccc(OC(F)(F)F)cc4)cn3C)CC2)nc1  clinical HCMV isolate             300
3  COc1c(N2CCC(C(=O)O)CC2)c(F)cc2c(=O)c(C(=O)NCc3ccc(OC(F)(F)F)cc3C)cn(CC(F)(F)F)c12  clinical HCMV isolate            3000
